# assayed_system: cyclic nucleotide phosphodiesterase
# procedure_text: Phosphodiesterase inhibitory activity (cyclic AMP hydrolysis)
# conditions: read-out: IC50 (50% inhibition of cyclic nucleotide phosphodiesterase activity); cyclic AMP 0.10-1.0 μM, pH 7.4
endpoint_name: pIC50
Answer as the number alone; pIC50 is minus log10 of concentration in mol/L.

Worked cases, pIC50 given:
- molecule: "Cc1cc2c(cc1C1=NNC(=O)CC1)NC(=O)CO2"
  pIC50: 4.82
- molecule: "Cc1cc2c(cc1C1=NNC(=O)CC1C)NC(=O)CO2 (racemic)"
  pIC50: 4.70
- molecule: "CC1CC(=O)NN=C1c1ccc2c(c1)OCC(=O)N2 (racemic)"
  pIC50: 6.52
- molecule: "CC(=O)N1CCOc2ccc(C3=NNC(=O)CC3)cc21"
  pIC50: 4.00

Query (molecule): CC1Oc2ccc(C3=NNC(=O)CC3)cc2N(C)C1=O (racemic) ; field requested: pIC50
4.89

Please look up its pIC50: CC(=O)N1CCOc2ccc(C3=NNC(=O)CC3C)cc21 (racemic)
4.52

Any idea what its pIC50 is? The molecule is CC1CC(=O)NN=C1c1ccc2c(c1)N(C(C)C)C(=O)C(C)O2 (stereo not drawn)
4.62

Look at this molecule and give its reported pIC50. Cc1cc2c(cc1C1=NNC(=O)CC1)N(C)C(=O)C(C)O2 (racemic)
4.52

Data request, read-out pIC50, for CC1Oc2ccc(C3=NNC(=O)CC3)cc2NC1=O (racemic)
4.85

Quick one: pIC50 of CN1N=C(c2ccc3c(c2)N(S(C)(=O)=O)CCO3)CCC1=O ?
4.00

# get_value(readout='pIC50', item= Cc1cc2c(cc1C1=NNC(=O)CC1C)N(C)C(=O)CO2 (racemic) )
4.42

I'd like to know its pIC50. The molecule in question is CC1CNc2cc(C3=NNC(=O)CC3C)ccc2O1 (stereo not drawn)
4.40

---

# assayed_system: cyclic nucleotide phosphodiesterase
# procedure_text: Phosphodiesterase inhibitory activity (cyclic AMP hydrolysis)
# conditions: read-out: IC50 (50% inhibition of cyclic nucleotide phosphodiesterase activity); cyclic AMP 0.10-1.0 μM, pH 7.4
pIC50: −log10 of the molar value.
Returns one of met or not met; met when pIC50 is >= 4.

// known answers, use as guide
- compound: "Cc1cc(C2=NNC(=O)CC2C)c2c(c1)N(C)C(=O)CO2 (centres unmarked) [Example 41]"
  class_name: "met"
- compound: "CC1CC(=O)NN=C1c1ccc2c(c1)NC(=O)CO2 (racemic) [Example 22]"
  class_name: "met"
- compound: "Cc1cc2c(cc1C1=NNC(=O)CC1)N(C)C(=O)CO2 [Example 29]"
  class_name: "met"

Determine whether this compound has pIC50 no lower than 4: O=C1CCC(c2ccc3c(c2)NC(=O)CO3)=NN1 [Example 20]
not met

---

# assayed_system: cyclic nucleotide phosphodiesterase
# procedure_text: Phosphodiesterase inhibitory activity (cyclic AMP hydrolysis)
# conditions: read-out: IC50 (50% inhibition of cyclic nucleotide phosphodiesterase activity); cyclic AMP 0.10-1.0 μM, pH 7.4
Rule: IC50 below 10 µM gives label 1, anything at or above gives label 0.

- molecule: "CS(=O)(=O)N1CCOc2ccc(C3=NNC(=O)CC3)cc21"
  assayed_system: "cyclic nucleotide phosphodiesterase"
  class_name: "label 1"
- molecule: "CC1CC(=O)NN=C1c1ccc2c(c1)N(C)C(=O)CO2 (racemic)"
  assayed_system: "cyclic nucleotide phosphodiesterase"
  class_name: "label 1"
- molecule: "CC1CC(=O)NN=C1c1ccc2c(c1)N(C)C(=O)C(C)O2 (stereo not drawn)"
  assayed_system: "cyclic nucleotide phosphodiesterase"
  class_name: "label 1"
- molecule: "CC1CC(=O)NN=C1c1ccc2c(c1)NCCO2 (racemic)"
  assayed_system: "cyclic nucleotide phosphodiesterase"
  class_name: "label 1"

Is the reported IC50 for Cc1cc2c(cc1C1=NNC(=O)CC1)OCC(=O)N2C strictly below 10 µM?
label 0

Say whether its IC50 is strictly beneath 10 µM. Entry: CC1CC(=O)NN=C1c1ccc2c(c1)N(S(C)(=O)=O)CCO2 (racemic)
label 1

is_below(IC50, 10 µM) for CN1C(=O)CSc2ccc(C3=NNC(=O)CC3)cc21 ?
label 0

Does Cc1cc2c(c(C3=NNC(=O)CC3C)c1)OCC(=O)N2 (stereo not drawn) have IC50 strictly under 10 µM?
label 0

I wonder whether CC1CNc2cc(C3=NNC(=O)CC3)ccc2O1 (racemic) has IC50 below 10 µM. Can you tell?
label 1

Values from patent US5081242A
